Values compiled from the RNAGym collection of RNA variant scans (doi:10.7554/elife.80360).

B1: HDV Ribozyme (parent)
chain: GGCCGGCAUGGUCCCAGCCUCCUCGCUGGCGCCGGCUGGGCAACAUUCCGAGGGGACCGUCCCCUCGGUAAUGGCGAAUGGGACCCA

# Variants of: B1
# test.description: self-cleavage, relative activity (ratio to wild type); higher = more cleavage; co-transcriptional
Decide by self-cleavage: equal to or exceeding 0.7 means Met, less means Not met.

Study these solved cases before continuing.
[[record]]
variant = "C48A U72G"
class_name = "Not met"

[[record]]
variant = "C33G A71C"
class_name = "Not met"

[[record]]
variant = "A70C A77C"
class_name = "Not met"

[[record]]
variant = "G34U G52U"
class_name = "Not met"


input: # bool: self-cleavage of G59A G68U >= 0.7
output: Met

input: Reported self-cleavage reaches at least 0.7 for C57U C58A ?
output: Met

input: Reported self-cleavage reaches at least 0.7 for U12A A78G ?
output: Not met

input: hey, is self-cleavage for this one >= 0.7? U9C C33U
output: Met
